- TEST SYSTEM: PDE5 (Homo sapiens)
- Construct: partially purified cGMP-specific PDE isolated from HT-29 cells; endogenous in cells
- ASSAY SUMMARY: cGMP PDE inhibition, PDE5

COMPOUND: CC1=C(CC(=O)NCc2ccccc2)c2cc(F)ccc2/C1=C\c1ccncc1.Cl [Compound 38, Hydrochloride]
UOM: µM
IC50: 4

* * *

- TEST SYSTEM: GST-cGB-PDE5 fusion protein (cGMP binding sites of human PDE5A) (Homo sapiens, UniProt O76074)
- Construct: made in house; host or cells: E. coli BL21 (DE3)
- ASSAY SUMMARY: cGMP binding assay with GST-cGB-PDE5 fusion protein
- RECORDED CONDITIONS: 3H-cGMP 2 μM
PROPERTY: competition with cGMP in binding to cGMP binding sites of GST-cGB-PDE5

MOLECULE: CCCCOC1C2OP(=O)(O)OCC2OC1n1cnc2c(=O)[nH]c(N)nc21 (stereo not shown)
DATA VALUE: did not compete
//
MOLECULE: O=c1ccn([C@@H]2O[C@@H]3COP(=O)(O)O[C@H]3[C@H]2O)c(=O)[nH]1
DATA VALUE: did not compete

* * *

- TEST SYSTEM: GST-cGB-PDE5 fusion protein (cGMP binding sites of human PDE5A) (Homo sapiens, UniProt O76074)
- Construct: made in house; host or cells: E. coli BL21 (DE3)
- ASSAY SUMMARY: cGMP binding assay with GST-cGB-PDE5 fusion protein
- RECORDED CONDITIONS: 3H-cGMP 2 μM
- Description: 5′-3′, Inc. kits for total RNA followed by oligo (dT) column purification of mRNA are used with HT-29 cells. […] Then, the mixture is transferred to Brandel MB-24 cell harvester with GF/B as the filter membrane followed by 2 washes with 10 mL of cold 5 mM potassium buffer(pH 6.8). The membranes are then cut out and transferred to scintillation vials followed by the addition of 1 mL of H2O and 6 mL of Ready Safe™ liquid scintillation cocktail to each vial. […]
PROPERTY: competition with cGMP in binding to cGMP binding sites of GST-cGB-PDE5

COMPOUND: CCCCOC1C2OP(=O)(O)OCC2OC1n1cnc2c(N)ncnc21 (centres unmarked) [2′-O-butyl-cAMP]
DATA VALUE: did not compete
//
COMPOUND: Nc1ccn([C@@H]2O[C@@H]3COP(=O)(O)O[C@H]3[C@H]2O)c(=O)n1 [cCMP, cyclic CMP]
DATA VALUE: did not compete

Where do these numbers come from? They come from patent US20060252762A1.
